Values were extracted from PubChem BioAssay (NCI).

Tested on: DU-145 prostate
procedureText: NCI tumour cell line growth inhibition, 48 h
Listed next: entries and their corresponding TGI.
assayMetric: TGI

{"compound": "Cc1nc(Cc2n[nH]c(C)n2)n[nH]1", "assayMetric": "TGI", "measurement": "> 100 µM"}
{"compound": "CC(NNC(=O)c1ccncc1)c1ccc(Cl)cc1Cl (stereo unspecified)", "assayMetric": "TGI", "measurement": "> 100 µM"}
{"compound": "CSc1nc[nH]c1C(N)=S", "assayMetric": "TGI", "measurement": "> 100 µM"}
{"compound": "CN(C)C(=O)Oc1ccc(C(=S)Nc2ccccc2)cc1", "assayMetric": "TGI", "measurement": "> 100 µM"}
{"compound": "CC(C)=CCCC1(C)C2COC(=O)C21 (stereo unspecified)", "assayMetric": "TGI", "measurement": "> 100 µM"}
{"compound": "CCC(=C/[C@H](C)C/C=C/C(C)=C/[C@@H](C)C(=O)[C@@H](C)[C@H](O)[C@@H](C)CC)/C=C/[C@H]1CC=CC(=O)O1", "assayMetric": "TGI", "measurement": "< 0.0012 µM"}

* * *

This section presents compounds with their documented TGI values.
Tested on: CAKI-1 renal
procedureText: NCI tumour cell line growth inhibition, 48 h
assayMetric: TGI (µM)

{"compound": "Cc1ccc(S(=O)(=O)N2CCC(C(=O)O)(c3ccccc3)CC2)cc1", "qualifierSign": ">", "measurement": 100}
{"compound": "O=C(OC[C@@H]1CO1)c1cccc2c(=O)c3ccccc3[nH]c12", "qualifierSign": "=", "measurement": 0.687}
{"compound": "O=C(NCc1ccccc1Cl)c1c(O)c2ccccc2[nH]c1=O", "qualifierSign": "=", "measurement": 96.6}
{"compound": "Cc1ccc(NCCN(C)C)c2c(=O)c3cc(O)ccc3sc12", "qualifierSign": "=", "measurement": 11.6}
{"compound": "COc1ccc(/C(CC2OC(=O)c3ccccc32)=N\\NC(N)=O)cc1 (stereo not drawn)", "qualifierSign": ">", "measurement": 100}
{"compound": "COc1cc2c(cc1OC)C(=O)/C(=C/c1ccc(N(C)C)cc1)CC2", "qualifierSign": ">", "measurement": 10}
{"compound": "[Cl-].[Gd+3].[O-]/N=C(\\c1ccccc1)c1ccccn1.[O-]/N=C(\\c1ccccc1)c1ccccn1.[O-]/N=C(\\c1ccccc1)c1ccccn1", "qualifierSign": ">", "measurement": 100}
{"compound": "C=CCNC1=C2C[C@@H](C)C[C@@H](OC)[C@H](OC(=O)CCN(C)C)[C@H](C)/C=C(\\C)[C@@H](OC(N)=O)[C@H](OC)/C=C\\C=C(/C)C(=O)NC(=CC1=O)C2=O", "qualifierSign": "=", "measurement": 45}

* * *

Test system: HL-60(TB) leukemia
procedureText: NCI tumour cell line growth inhibition, 48 h
# Lookup of reported TGI keyed by entry

{"compound": "O=C(CC1=Nc2nnc(-c3nnc4n3C(=O)C(CC(=O)C3CC3)=N4)n2C1=O)C1CC1", "TGI": "> 100 µM"}
{"compound": "O=C(Nc1ccc(C(F)(F)F)cc1[N+](=O)[O-])c1cccnc1", "TGI": "> 100 µM"}
{"compound": "OCC(O)C(O)C(O)C(O)c1nn[nH]n1 (stereo not drawn)", "TGI": "> 100 µM"}
{"compound": "NC(N)=N/N=C(/c1ccccc1)c1ccccc1F", "TGI": "> 100 µM"}
{"compound": "COc1cc([C@@H]2Oc3cc4oc(-c5ccccc5)cc(=O)c4c(O)c3O[C@H]2OC)ccc1O", "TGI": "8.08 µM"}
{"compound": "C=CCOC(=O)N1c2ccc(O)cc2[C@@]23O[C@@]24[C@@H]1C#C/C=C\\C#C[C@]3(O)C(=O)C[C@@H]4C", "TGI": "> 100 µM"}
{"compound": "COc1cc(CCc2ccc(OC(C)=O)cc2)cc(OC)c1OC", "TGI": "> 100 µM"}
{"compound": "COc1cc(/C=C2/Oc3c(OC)cccc3C2=O)ccc1O", "TGI": "> 100 µM"}
{"compound": "O=C(O)/C=C/c1ccncc1", "TGI": "> 100 µM"}
{"compound": "c1cc2c(cc1[C@@H]1OC[C@@H]3[C@H]1CO[C@H]3c1ccc3c(c1)OCO3)OCO2", "TGI": "> 100 µM"}
{"compound": "O=C(C(=O)c1cc(Br)ccc1O)c1cc(Br)ccc1O", "TGI": "6.16 µM"}
{"compound": "CCC1CN2CCc3c([nH]c4ccccc34)[C@@](C(=O)OC)(c3cc4c(cc3OC)N(C)C3C(O)(C(=O)OC)C(C(=O)OC)C5(CC)C=CCN6CCC43C65)C[C@@H](C2)[C@@H]1C(C)(C)C (stereo partly drawn)", "TGI": "1.23 µM"}
{"compound": "CC(C)=Nn1cnc2c1NC(C)(C)N=C2C(N)=O", "TGI": "> 10 µM"}
{"compound": "CC1(C)CC[C@]2(C(=O)O)CC[C@]3(C)C(=CC[C@@H]4[C@@]5(C)C/C(=C/c6ccco6)C(=O)C(C)(C)[C@@H]5CC[C@]43C)[C@@H]2C1", "TGI": "6.84 µM"}
{"compound": "N#CCCN(CCC#N)c1ccc(C=Nc2ccc(F)cc2)cc1", "TGI": "> 100 µM"}
{"compound": "C/C(=N\\NC(=S)N1CCOCC1)c1nc2ncccc2[nH]1", "TGI": "> 100 µM"}
{"compound": "CCOc1ccccc1NC(=O)C1=C(C)NC(C)=C(C(=O)Nc2ccccc2OCC)C1c1ccc([N+](=O)[O-])cc1", "TGI": "> 100 µM"}
{"compound": "C(=C\\c1c2oc(-c3ccccc3)cc(-c3ccccc3)c-2c2ccccc12)/C=C1\\c2ccccc2-c2c(-c3ccccc3)cc(-c3ccccc3)[o+]c21", "TGI": "> 100 µM"}
{"compound": "COc1ccc(Cc2nc3cc(OC)c(OC)cc3c(=O)[nH]2)cc1", "TGI": "4.8 µM"}
{"compound": "O=C(O)CCC1NC(/C(=C/c2ccccc2O)NC(=O)c2ccccc2)OC1=O (stereo not drawn)", "TGI": "> 100 µM"}
{"compound": "COc1ccc(/C(C)=C(\\c2ccc(Cl)cc2)c2ccc(OCCN3CCCCCC3)cc2)cc1F", "TGI": "7.11 µM"}
{"compound": "C/C(CC(=O)Nc1cccc([N+](=O)[O-])c1)=N\\NC(=O)C[n+]1ccccc1", "TGI": "> 100 µM"}
{"compound": "COC(=O)c1ccc2[nH]c(O)c(C(=Nc3ccc(N(C)C(=O)CN4CCN(C)CC4)cc3)c3ccccc3)c2c1", "TGI": "3.12 µM"}
{"compound": "O=C(c1ccccc1)c1cc(Cl)ccc1NCn1nnc2ccccc21", "TGI": "88.8 µM"}
{"compound": "CCN1CCN(c2nc(NNC(=O)c3ccccc3)nc(N3CCN(C(c4ccccc4)c4ccccc4)CC3)n2)CC1", "TGI": "3.99 µM"}
{"compound": "CCOC(=O)C1C(c2ccc(OC)cc2)c2c([nH]n(-c3ccccc3)c2=O)CC1(C)O (stereo not drawn)", "TGI": "11.1 µM"}
{"compound": "Cn1c(NC(=O)NC23CC4CC(CC(C4)C2)C3)nc2ccccc21", "TGI": "> 100 µM"}
{"compound": "COC(=O)[C@]1(C)CCC[C@]2(C)[C@@H]1CCC13C[C@@H](C=CO1)[C@@H](C)CC32O (stereo partly drawn)", "TGI": "> 100 µM"}

* * *

Catalogue of TGI readings, one per entry.
System: MALME-3M melanoma
procedureText: NCI tumour cell line growth inhibition, 48 h

{"compound": "CC(=O)C(C(C)=O)[C@H]1OC(C)(C)O[C@H]1[C@H]1COC(C)(C)O1", "TGI": "> 100 µM"}
{"compound": "N#CCCN(CCC#N)c1ccc(C=Nc2ccc(F)cc2)cc1", "TGI": "> 100 µM"}
{"compound": "Nc1ccc(C(=O)/C=C/c2ccccc2O)cc1", "TGI": "> 100 µM"}
{"compound": "N#CCC1(n2cc(-c3ncnc4[nH]ccc34)cn2)CN(C2CCN(C(=O)c3ccnc(C(F)(F)F)c3F)CC2)C1", "TGI": "> 100 µM"}
{"compound": "CC1=CCN(c2ccccn2)OC1c1ccccc1 (stereo not given)", "TGI": "> 100 µM"}
{"compound": "O=c1[nH]c2ccc([N+](=O)[O-])cc2nc1/C(=N/Nc1ccccc1)C(O)c1ccco1 (stereo not given)", "TGI": "> 100 µM"}
{"compound": "CCCCC[C@@H](C/C=C/CCC(=O)NC/C(=C/Cl)[C@H]1C(=O)C(C)(C)C(=O)[C@@H](C)[C@@]1(C)O)OC", "TGI": "35.5 µM"}
{"compound": "c1ccc(Nc2nnc(CCCCCCCCc3nnc(Nc4ccccc4)o3)o2)cc1", "TGI": "> 100 µM"}
{"compound": "O=C(NCc1ccccc1Cl)c1c(O)c2ccccc2[nH]c1=O", "TGI": "> 100 µM"}
{"compound": "C#Cc1cccc(NC(=O)C2CCCN(C(=O)CCl)C2)c1 (stereo not given)", "TGI": "78.6 µM"}
{"compound": "O=C(/C(=C/c1ccc(O)cc1)c1ccccc1)c1ccccc1", "TGI": "37.1 µM"}
{"compound": "C=CCN1C(=O)CC(=O)N(NC2=NNC3(C(=O)N2)c2ccccc2-c2ccccc23)C1=S", "TGI": "> 100 µM"}
{"compound": "C(=C\\c1c2oc(-c3ccccc3)cc(-c3ccccc3)c-2c2ccccc12)/C=C1\\c2ccccc2-c2c(-c3ccccc3)cc(-c3ccccc3)[o+]c21", "TGI": "> 100 µM"}
{"compound": "CCCCCCCCCCCCOC1C(C(CC(=O)N2CCN(Cc3ccc4c(c3)OCO4)CC2)NS(=O)(=O)c2cc(Cl)cc(Cl)c2)OC2OC(C)(C)OC21 (stereo not given)", "TGI": "> 100 µM"}
{"compound": "C/C(=N\\NC(=S)N1CCOCC1)c1nc2ncccc2[nH]1", "TGI": "> 100 µM"}
